target: PtpB from Mtb (Mycobacterium tuberculosis); construct: made in house; experiment: biochemical; assay type: biochemical; details: pNPP substrate, 37 °C, imidazole pH 7.0; mean ± SD, 3 experiments
Sequence (P96830 1-276): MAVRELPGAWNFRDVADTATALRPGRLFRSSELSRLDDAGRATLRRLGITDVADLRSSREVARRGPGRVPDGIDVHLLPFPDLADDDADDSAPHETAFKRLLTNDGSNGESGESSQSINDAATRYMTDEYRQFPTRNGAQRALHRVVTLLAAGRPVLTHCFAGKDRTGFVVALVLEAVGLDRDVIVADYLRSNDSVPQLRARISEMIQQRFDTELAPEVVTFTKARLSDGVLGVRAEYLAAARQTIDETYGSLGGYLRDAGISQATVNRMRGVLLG
measurement kind: IC50

Reported IC50 of COc1c(C)c(OC(C)=O)c2c(c1-c1c(OC)c(C)c(OC(C)=O)c3c1C(=O)c1cc(C)cc(OC(C)=O)c1C3=O)C(=O)c1cc(C)cc(OC(C)=O)c1C2=O [Ac3, tetra-acetyl-trachypone] : 33.2 µM

Reported IC50 of COc1ccc(CCC(=O)c2c(O)cc(OC)c(CC=C(C)C)c2OC)cc1CC=C(C)CCC=C(C)C [59-triMe] : > 100 µM

Reported IC50 of C[N+](C)(C)CCc1c[nH]c2ccc(O)cc12.[I-] [Buf-I, bufotenine CH3I] : > 100 µM

Reported IC50 of O=C(O)/C=C/c1ccc(OC2O[C@H](CO)[C@@H](O)[C@H](O)[C@H]2O)c(O)c1 (stereo partly drawn) [Caf, 4-O-glucosyl caffeic acid] : > 100 µM

Reported IC50 of COc1ccc([C@@H]2CC(=O)c3c(O)cc(O[C@@H]4O[C@H](CO[C@@H]5O[C@@H](C)[C@H](O)[C@@H](O)[C@H]5O)[C@@H](O)[C@H](O)[C@H]4O)cc3O2)cc1O [Hesp, hesperidin] : > 100 µM

Reported IC50 of CC(C)=CCc1c(C)c(CC=C(C)C)c2c(c1O)C(=O)c1c(O)cc(O)c(CC=C(CO)CO)c1C2 [∆3] : 26.7 µM
